As shown below, each of these molecules has a reported pIC50 value.
subject.of.test: human cannabinoid CB1 receptor (Homo sapiens, UniProt P21554)
Construct: co-transfected with AP1-luciferase reporter
Sequence (P21554 whole entry): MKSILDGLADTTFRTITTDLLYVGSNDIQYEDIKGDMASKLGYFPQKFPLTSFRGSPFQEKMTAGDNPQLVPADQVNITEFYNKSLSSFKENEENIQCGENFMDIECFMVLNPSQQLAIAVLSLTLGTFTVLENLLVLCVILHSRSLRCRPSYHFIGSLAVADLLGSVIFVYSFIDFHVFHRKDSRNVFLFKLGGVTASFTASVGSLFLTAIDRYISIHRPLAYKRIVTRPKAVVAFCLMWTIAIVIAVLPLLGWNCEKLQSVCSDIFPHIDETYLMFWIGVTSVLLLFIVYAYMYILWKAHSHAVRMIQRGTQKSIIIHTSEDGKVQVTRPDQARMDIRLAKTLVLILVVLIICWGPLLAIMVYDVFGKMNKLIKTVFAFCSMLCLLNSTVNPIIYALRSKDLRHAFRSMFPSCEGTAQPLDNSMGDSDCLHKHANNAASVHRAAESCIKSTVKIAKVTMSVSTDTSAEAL
experiment: In-vitro determination of efficacy and potency at the human CB1 receptor expressed in CHO cells (AP1-luciferase reporter, antagonism of CP-55,940)
pIC50: −log10 of the molar value.

Completed entries (count: 6):
[[record]]
molecule = "N#Cc1ccc2c(c1)cc(C(=O)NCC1(O)CCCCC1)n2Cc1cccc(OC(F)(F)F)c1"
reported_result = "8.00 to 9.00"

[[record]]
molecule = "CC(C)OCCCNC(=O)c1cc2cc(Cl)ccc2n1Cc1cccc(OC(F)(F)F)c1"
reported_result = "7.00 to 8.00"

[[record]]
molecule = "CC(O)(CCNC(=O)c1cc2cc(C#N)ccc2n1Cc1cccc(OC(F)(F)F)c1)C(F)(F)F (stereo not shown)"
reported_result = "8.00 to 9.00"

[[record]]
molecule = "N#Cc1ccc2c(c1)cc(C(=O)NCC1(CO)CCCC1)n2Cc1cccc(OC(F)(F)F)c1"
reported_result = "> 9.00"

[[record]]
molecule = "CN1CCN(c2cccc(Cn3c(C(=O)NC[C@H]4CCCC[C@@H]4O)cc4cc(C#N)ccc43)c2)CC1 (relative stereo)"
reported_result = "7.00 to 8.00"

[[record]]
molecule = "N#Cc1ccc2c(c1)cc(C(=O)N[C@@H]1CCC[C@H]1O)n2Cc1cccc(OC(F)(F)F)c1 (relative stereo)"
reported_result = "8.00 to 9.00"


Next up:
Determine reported pIC50 for COc1ccc(OC(F)(F)F)cc1Cn1c(C(=O)NCC(C)(C)CO)cc2cc(C#N)ccc21 ; test system: human cannabinoid CB1 receptor (Homo sapiens, UniProt P21554).
8.00 to 9.00

====

subject.of.test: human cannabinoid CB1 receptor (Homo sapiens)
Construct: co-transfected with AP1-luciferase reporter
experiment: In-vitro determination of efficacy and potency at the human CB1 receptor expressed in CHO cells (AP1-luciferase reporter, antagonism of CP-55,940)
property.name: IC50

[[record]]
compound = "N#Cc1ccc2c(c1)cc(C(=O)NCC1(O)CCCC1)n2Cc1cccc(OC(F)(F)F)c1"
reported_result = "1 to 10 nM"

[[record]]
compound = "Cc1ccc(C(F)(F)F)cc1Cn1c(C(=O)NCCC(C)(C)O)cc2cc(C#N)ccc21"
reported_result = "1 to 10 nM"


Next up:
Determine reported IC50 for N#Cc1ccc2c(c1)cc(C(=O)NC[C@H]1CCCC[C@@H]1O)n2Cc1cccc(OC(F)(F)F)c1 (relative stereo) ; test system: human cannabinoid CB1 receptor (Homo sapiens).
< 1 nM
